test system: OVCAR-3 ovarian; assay: NCI-60 one-dose screen, 48 h (100 = growth as untreated, 0 = no growth, -100 = all killed); conditions: 10 µM unless noted
Compounds without any hit were thinned out: in the full panel of roughly 83,000, 20% have a hit.
Entries and their measured growth follow.
Recorded Endpoint: growth (%)

>  <Molecule>
COC(=O)[C@]12CC[C@@H](C)[C@H](C)[C@@H]1C1=CC[C@@H]3[C@@]4(C)C(C=O)=C[C@@](C)(COS(C)(=O)=O)C4=CC[C@@]3(C)[C@]1(C)CC2

>  <Recorded Endpoint>
growth

>  <Numeric Result>
-85.7

$$$$
>  <Molecule>
CNC(=O)c1cc(Oc2cccc3nc(Nc4ccc(Oc5ccccc5)cc4)ccc23)ccn1

>  <Recorded Endpoint>
growth

>  <Numeric Result>
72.7

$$$$
>  <Molecule>
O=C1CSC(c2c(F)cccc2Cl)N1NC(=O)C(O)(c1ccccc1)c1ccccc1 (centres undefined)

>  <Recorded Endpoint>
growth

>  <Numeric Result>
100

$$$$
>  <Molecule>
Cc1ccc(NC(=O)c2ccc(CN3CC[C@H](N(C)C)C3)c(C(F)(F)F)c2)cc1Nc1nccc(-c2cncnc2)n1

>  <Recorded Endpoint>
growth

>  <Numeric Result>
-6.36

$$$$

---

test system: RXF 393 renal; experiment: NCI-60 one-dose screen, 48 h (100 = growth as untreated, 0 = no growth, -100 = all killed); conditions: 10 µM unless noted
This is part of a sample that, as a whole, favours compounds with a hit. Of some 83,000 tested, about 20% had one in any assay.

>  <Compound>
O=C(COc1ccc(/C=C2\Cc3ccc(Cl)cc3C2=O)cc1)Nc1nccs1

>  <growth, %>
98.2

$$$$
>  <Compound>
NC1=Nc2cc(OCCCN3Cc4ccccc4C3)c(OCC3CC3)cc2C12CCCC2

>  <growth, %>
60.6

$$$$
>  <Compound>
O=C(Cc1ccc(-c2ccc(OCCN3CCOCC3)cc2)cn1)NCc1ccccc1

>  <growth, %>
29.3

$$$$
>  <Compound>
COc1cnc2c(c1)C(=O)c1c-2n(CCCN2CCC(O)CC2)c(=O)c2cc(Cl)ccc12

>  <growth, %>
28.2

$$$$
>  <Compound>
CCc1nc2cc(/C=C/C(=O)NO)ccc2c(=O)n1CCc1ccc(OC)cc1

>  <growth, %>
-25

$$$$
>  <Compound>
COCCOc1cnc2ccn([C@H](C)c3nnc4c(F)cc(-c5cnn(C)c5)cn34)c(=O)c2c1

>  <growth, %>
81.2

$$$$
>  <Compound>
NC(=O)Nc1cc(-c2cccc(F)c2)sc1C(=O)N[C@H]1CCCNC1

>  <growth, %>
-89.1

$$$$
>  <Compound>
CC1(COc2ccc3c(c2)ncn3-c2ccc3cccc(N4CCC(N)CC4)c3n2)COC1

>  <growth, %>
-58.6

$$$$
>  <Compound>
CNC(=O)c1cc(Oc2ccc(NC(=O)Nc3ccc(Cl)c(C(F)(F)F)c3)c(F)c2)ccn1

>  <growth, %>
-31.3

$$$$
>  <Compound>
Brc1ccc([I+]c2ccc(Br)cc2)cc1

>  <growth, %>
40.6

$$$$
>  <Compound>
Nc1c(Cl)cccc1[N+](=O)[O-]

>  <growth, %>
115

$$$$
>  <Compound>
N#Cc1c(-c2ccc(Cl)cc2)csc1NC(=O)Nc1cccc(C(F)(F)F)c1

>  <growth, %>
59.5

$$$$
>  <Compound>
FC(F)c1nc2ccccc2n1-c1nc(N2CCOCC2)nc(N2CCOCC2)n1

>  <growth, %>
-44.5

$$$$
>  <Compound>
COc1cc2ncnc3c2cc1OCCCCCN(C)Cc1ccc(Br)cc1N3

>  <growth, %>
69.3

$$$$
>  <Compound>
C=CC(=O)N1CCC(Oc2cc3c(Nc4ccc(Cl)c(Cl)c4F)ncnc3cc2OC)CC1

>  <growth, %>
-46.6

$$$$
>  <Compound>
Cc1cc(N2CCOCC2)nc(N(CCNc2ccnc3cc(Cl)ccc23)Cc2cccs2)n1

>  <growth, %>
-46.5

$$$$
>  <Compound>
CCCCCCCC12Cc3ccccc3C1=Nc1c(c3ccccc3n1C)C2=O (stereo not drawn)

>  <growth, %>
104

$$$$
>  <Compound>
NC1(C(=O)N[C@@H](CCO)c2ccc(Cl)cc2)CCN(c2ncnc3[nH]ccc23)CC1

>  <growth, %>
-42.3

$$$$
>  <Compound>
Cc1c(NC(=O)OC[C@@H]2COCCN2)cn2ncnc(Nc3ccc4c(cnn4Cc4cccc(F)c4)c3)c12

>  <growth, %>
-62.4

$$$$
>  <Compound>
CCCCCCCCCNCCCCCCCCC

>  <growth, %>
50.5

$$$$
>  <Compound>
O=C1OCC2=C1C(c1cccc(F)c1)c1cc3c(cc1N2CCO)OCCO3 (stereo not drawn)

>  <growth, %>
4.45

$$$$
>  <Compound>
Cc1ccc(-c2nc3ccc(Cl)cn3c2NC2CCCCC2)o1

>  <growth, %>
83.1

$$$$
>  <Compound>
CCN(CC)CCN1C(=O)c2cccc3c(-c4ccc5c(c4)ncn5C4CCCCC4)ccc(c23)C1=O

>  <growth, %>
-11.4

$$$$
>  <Compound>
Cc1cc(C(=O)NOCCO)c(Nc2ccc(I)cc2F)n(C)c1=O

>  <growth, %>
27.3

$$$$
>  <Compound>
CC(C)Nc1cc(-c2c[nH]c(C(=O)N[C@H](CO)c3cccc(Cl)c3)c2)c(Cl)cn1

>  <growth, %>
2.5

$$$$
>  <Compound>
C=CC(=O)Nc1cccc(Nc2nc(Nc3ccc(N4CCN(C(C)=O)CC4)cc3OC)ncc2C(F)(F)F)c1

>  <growth, %>
-11.2

$$$$
>  <Compound>
O=C(Nc1ccc(Nc2ncnc3sc4c(c23)CCOC4)cc1)Nc1ccc(Cl)c(C(F)(F)F)c1

>  <growth, %>
98.9

$$$$
>  <Compound>
CNC(=O)c1cc(Oc2ccc3nc(NC(=O)Nc4ccc(Cl)c(C(F)(F)F)c4)sc3c2)ccn1

>  <growth, %>
-19.4

$$$$
>  <Compound>
CNC(=O)c1cc(Oc2cccc3nc(Nc4ccc(Oc5ccccc5)cc4)ccc23)ccn1

>  <growth, %>
91.3

$$$$
>  <Compound>
CC(C)OP(=O)(CCC(=O)c1c[nH]c2ccccc12)OC(C)C

>  <growth, %>
114

$$$$
>  <Compound>
CO[C@H]1C[C@@H]2CC[C@@H](C)[C@@](O)(O2)C(=O)C(=O)N2CCCC[C@H]2C(=O)O[C@H]([C@H](C)C[C@@H]2CC[C@@H](OCCO)[C@H](OC)C2)CC(=O)[C@H](C)/C=C(\C)[C@@H](O)[C@H](OC)C(=O)[C@H](C)C[C@H](C)\C=C/C=C/C=C/1C

>  <growth, %>
5.21

$$$$
>  <Compound>
C#Cc1cccc(Nc2ncnc3cc4c(cc23)OCCOCCOCCO4)c1

>  <growth, %>
40.7

$$$$
>  <Compound>
CN(C)C[C@@H]1CCn2cc(c3ccccc32)C2=C(C(=O)NC2=O)c2cn(c3ccccc23)CCO1

>  <growth, %>
-72.9

$$$$
>  <Compound>
Cc1cnc(Nc2ccc(OCCN3CCCC3)cc2)nc1Nc1cccc(S(=O)(=O)NC(C)(C)C)c1

>  <growth, %>
-86.7

$$$$
>  <Compound>
COc1cc2c(Oc3ccc(NC(=O)C4(C(=O)Nc5ccc(F)cc5)CC4)cc3F)ccnc2cc1OCCCN1CCOCC1

>  <growth, %>
-94.5

$$$$
>  <Compound>
CCOC(=O)c1sc(NC(=O)COc2ccc(/C=C3\Cc4ccc(Cl)cc4C3=O)cc2)nc1C

>  <growth, %>
116

$$$$
>  <Compound>
Cc1cccc(C)c1N1C(c2ccccc2)=NNC12C=CC(=O)c1c(O)cccc12 (stereo not drawn)

>  <growth, %>
105

$$$$
>  <Compound>
COc1ccc(Cl)c(Nc2nc3ccccc3nc2NS(=O)(=O)c2cccc(NC(=O)C(C)(C)N)c2)c1

>  <growth, %>
-10.2

$$$$

---

System: IGROV1 ovarian
Assay: NCI-60 one-dose screen, 48 h (100 = growth as untreated, 0 = no growth, -100 = all killed)
Settings: 10 µM unless noted
Procedure: Growth inhibition of the IGROV1 human tumor cell line is measured as a screen for anti-cancer activity. Cells are grown in 96 well plates and exposed to the test compound for 48 hours. Compounds are tested at a single concentration, which is 10^-5 M for most compounds. The reported endpoint is percent growth (GI% or GIPRCNT), where numbers from 0 - 100% represent growth inhibition, and numbers from -100% - 0 represent cell death. For example, a value of 40 represents 60% growth inhibition. […]
The panel holds about 83,000 compounds, 20% with a hit somewhere; the sample as a whole holds those more often.
Recorded Endpoint: growth (%)

>  <Molecule>
COC(=O)C1CCc2sc3ncnc(Nc4cn[nH]c4C(=O)Nc4ccc(CN5CCN(C)CC5)cc4)c3c21 (stereo not drawn)

>  <Recorded Endpoint>
growth

>  <Numeric Result>
4.94

$$$$
>  <Molecule>
COC(=O)[C@]12CC[C@@H](C)[C@H](C)[C@@H]1C1=CC[C@@H]3[C@@]4(C)C[C@@H](OC(=O)/C=C/c5ccccc5)[C@H](O)[C@@](C)(CO)[C@@H]4[C@H](O)C[C@@]3(C)[C@]1(C)CC2

>  <Recorded Endpoint>
growth

>  <Numeric Result>
31.2

$$$$
>  <Molecule>
C=CCCCC(=O)CCC(=O)OCC1O[C@@H](O[C@@H]2C(O)[C@@H](OC(C)=O)C(C)O[C@H]2O[C@H](CC=C)CCCCC)C(O)[C@@H](OC(=O)/C(C)=C/C)[C@@H]1OC(=O)/C=C/c1ccccc1 (stereo partly drawn)

>  <Recorded Endpoint>
growth

>  <Numeric Result>
35.1

$$$$
